# METHOD NOTES: Pharmacokinetics of D10.1 after PO, SQ and IV dosing in mice
# CONDITION DESCRIPTION: female, Balb/C, mouse, plasma, po, 12.2 mg/kg
METRIC: level at time molar at 1 h (nM)
Answers are plain numbers, in nM.

I'd like to know its level at time molar at 1 h. The compound in question is CC[C@H](C)[C@@H]1NC(=O)[C@@H](CC(C)C)NC(=O)[C@H](CC(C)C)N(C)C(=O)[C@H](Cc2ccccc2)NC(=O)CN(C)C(=O)[C@@H]2CCCN2C(=O)[C@H](C(C)C)NC(=O)[C@H](Cc2ccccc2)N(C)C(=O)[C@H]2CCCN2C(=O)[C@H](CC(C)C)NC1=O
1780

---

What PAMPA_Papp_Avg (apparent permeability) was measured for each of the following?
# CONDITION DESCRIPTION: PAMPA
Where a SMILES comes first, the peptide text is derived from it. [ ]: non-standard residue; d: D form. NMeF = CN[C@@H](Cc1ccccc1)C(=O)O; dNMeF = CN[C@H](Cc1ccccc1)C(=O)O; NMeL = CN[C@@H](CC(C)C)C(=O)O; dNMeL = CN[C@H](CC(C)C)C(=O)O; NMeA = CN[C@@H](C)C(=O)O; dNMeA = CN[C@H](C)C(=O)O
Give bare numbers, in ×10⁻⁶ cm/s.

Check out these entries, answers already filled in.
{"columns": ["COMPOUND", "METRIC", "RESULT"],
 "data": [
  ["CC(C)C[C@@H]1NC(=O)[C@H]2CCCN2C(=O)[C@@H]2CCCN2C(=O)[C@H](CC(C)C)NC(=O)[C@@H](CC(C)C)NC(=O)[C@@H](C)N(C)C(=O)[C@@H](C)N(C)C(=O)[C@@H](C(C)C)NC1=O [Design D8.6, LPpLv*a*al] (cyclo(LP[dP]L[dV][dNMeA][dNMeA][dL]))", "PAMPA_Papp_Avg (apparent permeability)", 3.35],
  ["CC[C@@H](C)[C@H]1NC(=O)[C@H]2CCCN2C(=O)[C@H]([C@@H](C)CC)NC(=O)[C@H](CC(C)C)N(C)C(=O)[C@H]2CCCN2C(=O)[C@@H]2CCCN2C(=O)[C@H](Cc2ccccc2)N(C)C(=O)[C@H](Cc2ccccc2)NC(=O)[C@H]([C@@H](C)CC)NC1=O [Design D9.13, piIF*FPp*LI] (cyclo(F[NMeF]P[dP][NMeL]I[dP][dI]I))", "PAMPA_Papp_Avg (apparent permeability)", 3.37],
  ["CC[C@@H](C)[C@H]1NC(=O)[C@H](CC(C)C)NC(=O)[C@@H](CC(C)C)NC(=O)[C@H](C(C)C)NC(=O)[C@@H](Cc2ccccc2)N(C)C(=O)[C@@H]2CCCN2C(=O)[C@@H](CC(C)C)NC(=O)[C@H](CC(C)C)N(C)C(=O)[C@H]2CCCN2C1=O [Design D9.3, Lip*LlP*fVl] (cyclo(L[dI][dP][NMeL][dL]P[dNMeF]V[dL]))", "PAMPA_Papp_Avg (apparent permeability)", 2.33]
]}

Now consider a different compound.
I'd like to know its PAMPA_Papp_Avg (apparent permeability). The compound in question is CC[C@@H](C)[C@H]1NC(=O)[C@H](Cc2ccccc2)N(C)C(=O)[C@@H](CC(C)C)N(C)C(=O)[C@H](C(C)C)NC(=O)[C@H](C)NC(=O)[C@@H]2CCCN2C(=O)[C@H](CC(C)C)N(C)C(=O)[C@@H](Cc2ccccc2)N(C)C(=O)[C@H](C)N(C)C(=O)[C@H](C)N(C)C1=O [Design D10.56, *f*LPAV*l*Fi*A*A] (cyclo(AV[dNMeL][NMeF][dI][NMeA][NMeA][dNMeF][NMeL]P))
9.02

---

# CONDITION DESCRIPTION: PAMPA
Where a SMILES comes first, the peptide text is derived from it. [ ]: non-standard residue; d: D form. NMeF = CN[C@@H](Cc1ccccc1)C(=O)O; NMeL = CN[C@@H](CC(C)C)C(=O)O; dNMeL = CN[C@H](CC(C)C)C(=O)O; NMeV = CN[C@H](C(=O)O)C(C)C; NMeA = CN[C@@H](C)C(=O)O; dNMeA = CN[C@H](C)C(=O)O
METRIC: PAMPA_Papp_Avg (apparent permeability) (cm/s)
Give bare numbers, in cm/s.

{"columns": ["MOLECULE", "MEASUREMENT UNITS", "PAMPA_Papp_Avg (apparent permeability)"],
 "data": [
  ["CC(C)[C@H]1C(=O)N[C@H](Cc2ccccc2)C(=O)N2CCC[C@H]2C(=O)N[C@H](Cc2ccccc2)C(=O)N2CCC[C@H]2C(=O)N2CCC[C@H]2C(=O)N1C [Design D6.6, PP*VfPf] (cyclo([NMeV][dF]P[dF]PP))", "cm/s", "3.64e-06"],
  ["CC(C)[C@@H]1C(=O)N[C@@H](Cc2ccccc2)C(=O)N2CCC[C@H]2C(=O)N(C)[C@H](Cc2ccccc2)C(=O)N[C@H](C)C(=O)N2CCC[C@H]2C(=O)N1C (single isomer, unassigned) [Design D6.8.p2, *faP*vFP]", "cm/s", "1.77e-06"],
  ["CC[C@H](C)[C@@H]1NC(=O)[C@@H](C(C)C)NC(=O)[C@@H](CC(C)C)N(C)C(=O)[C@H]2CCCN2C(=O)[C@@H](CC(C)C)NC(=O)[C@@H](CC(C)C)N(C)C(=O)[C@H](CC(C)C)NC(=O)[C@H]2CCCN2C(=O)[C@H](C)N(C)C(=O)[C@H]2CCCN2C1=O [Design D10.41, p*lvIp*ApL*ll] (cyclo(I[dP][NMeA][dP]L[dNMeL][dL][dP][dNMeL][dV]))", "cm/s", "5.69e-06"],
  ["CC[C@@H](C)[C@H]1NC(=O)[C@@H](CC(C)C)NC(=O)[C@@H]2CCCN2C(=O)[C@H]2CCCN2C(=O)[C@@H](C(C)C)NC(=O)[C@H](C)NC(=O)[C@@H]2CCCN2C(=O)[C@@H]([C@H](C)CC)NC(=O)[C@@H](C)N(C)C1=O [Design D9.23, i*aiPAVpPl] (cyclo([dL][dI][dNMeA][dI]PA[dV][dP]P))", "cm/s", "1.41e-07"]
]}

Hello, I would appreciate it if you could give PAMPA_Papp_Avg (apparent permeability) for each entry below.
1. CC(C)C[C@@H]1NC(=O)[C@H](Cc2ccccc2)N(C)C(=O)[C@H]2CCCN2C(=O)[C@@H](CC(C)C)NC(=O)[C@@H](CC(C)C)NC(=O)[C@H](C)NC(=O)[C@H]2CCCN2C(=O)[C@@H]2CCCN2C(=O)[C@@H](C(C)C)NC1=O [Design D9.32, pAllp*FLvP] (cyclo(A[dL][dL][dP][NMeF]L[dV]P[dP]))
2. CC[C@@H](C)[C@H]1NC(=O)[C@@H]2CCCN2C(=O)[C@@H]([C@H](C)CC)NC(=O)[C@@H](C)N(C)C(=O)[C@H](CC(C)C)NC(=O)[C@@H](Cc2ccccc2)NC(=O)[C@H](CC(C)C)N(C)C(=O)[C@H]2CCCN2C(=O)[C@@H](CC(C)C)NC(=O)[C@H](CC(C)C)NC(=O)[C@H]2CCCN2C1=O [Design D11.1, ipLlp*LfL*aiP] (cyclo(L[dL][dP][NMeL][dF]L[dNMeA][dI]P[dI][dP]))

2.4e-07
3.48e-06
